# System: Escherichia coli TOP10;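 also: peptides expressed intracellularly from a pBAD plasmid library in pooled LB shake-flask culture, induced with 0.3% L-arabinose, DNA abundance read by NGS, three biological replicates, DESeq2 with apeglm shrinkage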
# assay protocol: shrunken log2 fold change of peptide-encoding DNA abundance (4.5 h post-induction vs induction); higher = less antimicrobial activity (less host growth inhibition)
# condition details: time post-induction: 4.5 h; library: site-saturation at positions 5, 18, 19, 20
For each entry below, report its shrunken log2 fold change value.
Lab note: jot down the number only; don't add units.

Query: # query: shrunken log2 fold change of entry "RRIRYRPPRLPRPRPRPSSPPRP"
Response: -0.631

Query: # shrunken log2 fold change lookup, item "RRIRYRPPRLPRPRPRPVTWPRP"
Response: -0.207

Query: // returns reported shrunken log2 fold change for input "RRIRWRPPRLPRPRPRPGRYPRP"
Response: -0.137

Query: Which shrunken log2 fold change is listed for "RRIRARPPRLPRPRPRPHSKPRP" ?
Response: -0.154

Query: Query (sequence): "RRIRDRPPRLPRPRPRPNEFPRP" ; field requested: shrunken log2 fold change
Response: -0.0102

Query: Could you tell me which shrunken log2 fold change is on file for "RRIRRRPPRLPRPRPRPHLWPRP" ?
Response: 0.25

Query: Look up shrunken log2 fold change: "RRIRERPPRLPRPRPRPCKFPRP"
Response: -0.214

Query: Name the reported shrunken log2 fold change value associated with the sequence "RRIRVRPPRLPRPRPRPTLCPRP"
Response: 0.0223

Query: # input sequence: "RRIRDRPPRLPRPRPRPMEVPRP" ; wanted: its shrunken log2 fold change
Response: 0.142

Query: Consider the sequence shown here: "RRIRDRPPRLPRPRPRPARKPRP" What is its recorded shrunken log2 fold change?
Response: 0.574

Query: Record request: shrunken log2 fold change value, item "RRIRIRPPRLPRPRPRPCAEPRP"
Response: -0.358

Query: shrunken log2 fold change; subject: "RRIRDRPPRLPRPRPRPTTLPRP"
Response: 0.525

Query: Which value of shrunken log2 fold change has been reported for "RRIRPRPPRLPRPRPRPKYRPRP" in the records?
Response: 2.73

Query: GET /values?readout=shrunken log2 fold change&item= "RRIRGRPPRLPRPRPRPSPLPRP"
Response: 0.539

Query: Requested read-out: shrunken log2 fold change. Entry: "RRIRSRPPRLPRPRPRPGASPRP"
Response: 0.418

Query: What value of shrunken log2 fold change has been reported for the following sequence? "RRIRYRPPRLPRPRPRPGNTPRP"
Response: -1.18

Query: Please give the measured shrunken log2 fold change for this sequence: "RRIRDRPPRLPRPRPRPWWVPRP"
Response: -0.335

Query: Look at this sequence and give its reported shrunken log2 fold change. "RRIRIRPPRLPRPRPRPGEWPRP"
Response: -0.01

Query: Form field: reported shrunken log2 fold change of "RRIRHRPPRLPRPRPRPFEKPRP"
Response: -0.0199

Query: Item under review: "RRIRHRPPRLPRPRPRPGNWPRP" . Reported shrunken log2 fold change?
Response: -0.0354

Query: I am curious: what shrunken log2 fold change value has been reported for "RRIRYRPPRLPRPRPRPPMMPRP" ?
Response: -0.836

Query: // lookup shrunken log2 fold change for "RRIRERPPRLPRPRPRPNQNPRP"
Response: -0.188

Query: May I ask what shrunken log2 fold change has been recorded for "RRIRRRPPRLPRPRPRPPFMPRP" ?
Response: 0.22

Query: Given the entry "RRIRARPPRLPRPRPRPLTHPRP" , report its measured shrunken log2 fold change.
Response: 0.227

Query: Suppose we examine the sequence "RRIRMRPPRLPRPRPRPFYAPRP" ; what shrunken log2 fold change value has been reported?
Response: -0.47

Query: Which shrunken log2 fold change reading was recorded for the sequence "RRIRQRPPRLPRPRPRPRIKPRP" ?
Response: 0.127

Query: So what does the record say about shrunken log2 fold change for "RRIRRRPPRLPRPRPRPLGAPRP" ?
Response: 0.468

Query: Which shrunken log2 fold change value belongs to "RRIRTRPPRLPRPRPRPLGLPRP" ?
Response: 0.207

Query: Quick one: shrunken log2 fold change for "RRIRCRPPRLPRPRPRPVYSPRP" ?
Response: -0.156

Query: Name the reported shrunken log2 fold change value associated with the sequence "RRIRCRPPRLPRPRPRPRHPPRP"
Response: 0.11

Query: // lookup shrunken log2 fold change for "RRIRIRPPRLPRPRPRPNYIPRP"
Response: -1.29

Query: Data request, read-out shrunken log2 fold change, for "RRIRARPPRLPRPRPRPTQEPRP"
Response: 0.0329

Query: Form field: reported shrunken log2 fold change of "RRIRPRPPRLPRPRPRPALRPRP"
Response: 0.545

Query: Fill in the blank: the reported shrunken log2 fold change of "RRIRNRPPRLPRPRPRPHYKPRP" is ____.
Response: -0.333

Query: Looking for the measured shrunken log2 fold change of "RRIRMRPPRLPRPRPRPASKPRP" , can you help?
Response: 0.0582

Query: Consider the sequence shown here: "RRIRNRPPRLPRPRPRPRCFPRP" What is its recorded shrunken log2 fold change?
Response: -0.404

Query: # lookup: shrunken log2 fold change of "RRIRWRPPRLPRPRPRPGEEPRP"
Response: 0.387

Query: Look up shrunken log2 fold change: "RRIRNRPPRLPRPRPRPMQKPRP"
Response: 0.0161

Query: What does the data say about its shrunken log2 fold change? Entry: "RRIRSRPPRLPRPRPRPSGQPRP"
Response: -0.0423

Query: Item under review: "RRIRTRPPRLPRPRPRPYEKPRP" . Reported shrunken log2 fold change?
Response: -0.657

Query: // lookup shrunken log2 fold change for "RRIRLRPPRLPRPRPRPHCRPRP"
Response: -0.254

Query: // returns reported shrunken log2 fold change for input "RRIRRRPPRLPRPRPRPNDDPRP"
Response: 0.0687

Query: Entry under review: "RRIRGRPPRLPRPRPRPMQMPRP" . Reported shrunken log2 fold change?
Response: 1.5

Query: Which measured shrunken log2 fold change value corresponds to "RRIRWRPPRLPRPRPRPSVNPRP" ?
Response: -0.0581
